Overview of reported inhibition across a group of compounds:
Target: EGFR (human)
Settings: A431; concentration not given here
Number in %, nothing else.

Solved cases (4 shown):
CCOc1cc(/C=C(\C#N)C(N)=O)cc(CSc2ccc([N+](=O)[O-])cc2)c1O | 0
CCOc1cc(/C=C(\C#N)C(N)=O)cc(CSc2ccc(Br)cc2)c1O | 0
CCOc1cc(/C=C(\C#N)C(N)=O)cc(CSc2ccccc2)c1OC(=O)c1ccccc1 | 20
CCOc1cc(/C=C(\C#N)C(N)=O)cc(CSc2ccc(C)cc2)c1O | 47

Consider the record given below.
So for "CCOc1cc(/C=C(\C#N)C(N)=O)cc(CSc2ccccc2)c1OC" , the logged inhibition turned out to be 18

---

Molecular target: EGFR (human) (UniProt P00533)
Sequence (P00533 whole entry, looked up): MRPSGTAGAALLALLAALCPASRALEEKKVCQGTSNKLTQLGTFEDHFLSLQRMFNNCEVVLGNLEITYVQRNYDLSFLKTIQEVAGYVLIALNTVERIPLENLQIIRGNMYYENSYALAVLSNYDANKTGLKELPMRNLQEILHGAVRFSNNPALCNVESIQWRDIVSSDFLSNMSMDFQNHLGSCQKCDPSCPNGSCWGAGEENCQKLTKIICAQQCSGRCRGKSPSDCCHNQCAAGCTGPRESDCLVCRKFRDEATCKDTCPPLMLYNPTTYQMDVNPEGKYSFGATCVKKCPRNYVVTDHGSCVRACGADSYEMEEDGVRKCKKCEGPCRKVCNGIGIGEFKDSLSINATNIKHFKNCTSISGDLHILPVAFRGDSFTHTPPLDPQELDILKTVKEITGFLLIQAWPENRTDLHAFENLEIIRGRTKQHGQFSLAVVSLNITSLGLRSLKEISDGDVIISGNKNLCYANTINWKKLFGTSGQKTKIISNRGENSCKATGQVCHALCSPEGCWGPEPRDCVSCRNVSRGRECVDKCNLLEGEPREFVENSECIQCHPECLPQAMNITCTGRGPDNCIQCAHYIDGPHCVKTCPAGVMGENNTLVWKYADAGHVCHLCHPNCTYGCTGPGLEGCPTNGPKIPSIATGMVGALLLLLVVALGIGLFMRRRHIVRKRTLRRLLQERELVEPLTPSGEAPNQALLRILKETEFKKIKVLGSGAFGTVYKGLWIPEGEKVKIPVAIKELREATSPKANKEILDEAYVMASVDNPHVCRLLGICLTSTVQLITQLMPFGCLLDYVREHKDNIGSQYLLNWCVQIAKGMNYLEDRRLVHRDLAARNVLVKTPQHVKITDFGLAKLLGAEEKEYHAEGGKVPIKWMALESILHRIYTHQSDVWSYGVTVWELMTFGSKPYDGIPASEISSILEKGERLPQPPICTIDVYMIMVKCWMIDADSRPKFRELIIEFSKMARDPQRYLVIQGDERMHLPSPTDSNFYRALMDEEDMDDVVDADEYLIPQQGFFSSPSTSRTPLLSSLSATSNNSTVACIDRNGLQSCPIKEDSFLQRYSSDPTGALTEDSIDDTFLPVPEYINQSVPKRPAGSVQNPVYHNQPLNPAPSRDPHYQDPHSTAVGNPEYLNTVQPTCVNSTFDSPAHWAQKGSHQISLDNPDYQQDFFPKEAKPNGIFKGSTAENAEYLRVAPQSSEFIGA
Details: A431; concentration not given here
Mark y for reported inhibition of 20% or greater; mark n for anything smaller.

These solved cases illustrate the format of a correct answer.
CCOc1cc(/C=C(\C#N)C(N)=O)cc(CSc2cccc(Cl)c2)c1O | n
CCOc1cc(/C=C(\C#N)C(N)=O)cc(CSc2ccc(O)cc2)c1O | y
CCOc1cc(/C=C(\C#N)C(N)=O)cc(CSc2c(F)c(F)c(F)c(F)c2F)c1O | y
CCOc1cc(/C=C(\C#N)C(N)=O)cc(CSc2cccc(OC)c2)c1O | n
CCOc1cc(/C=C(\C#N)C(N)=O)cc(COc2ccccc2)c1O | n

# input Reported inhibition reaches at least 20% for "CCOc1cc(/C=C(\C#N)C(N)=O)cc(CSc2ccccc2OC)c1O" ?
# output n

# input Reported inhibition reaches at least 20% for "CCOc1cc(/C=C(\C#N)C(N)=O)cc(CSc2ccc(C(C)(C)C)cc2)c1O" ?
# output n

# input Reported inhibition reaches at least 20% for "CCOc1cc(/C=C(\C#N)C(N)=O)cc(CSc2ccccc2)c1OC(C)=O" ?
# output y

# input Reported inhibition reaches at least 20% for "CCOc1cc(/C=C(\C#N)C(N)=O)cc(CSc2ccc(Cl)c(Cl)c2)c1O" ?
# output n

---

EGFR (human) measurements of IC50, listed per entry.

Solved cases (2 shown):
CC(C)(C)c1cc(/C=C(\C#N)C(N)=O)cc(C(C)(C)C)c1O | 46 µM
N#C/C(=C\c1cc(-c2ccccc2)c(O)c(-c2ccccc2)c1)C(N)=O | 0.37 µM

Consider the record given below.
Kindly note: EGFR (human), "CCOc1cc(/C=C(\C#N)C(N)=O)cc(CSc2c(F)c(F)c(F)c(F)c2F)c1O" , IC50 value reported: 3 µM
